- target-or-test-system: Jak2 (a.a. 828-1132) (Homo sapiens)
- Construct: Jak2 (a.a. 828-1132); His tag (N); made in house; host or cells: insect cells (baculovirus)
- Sequence (O60674 828-1132): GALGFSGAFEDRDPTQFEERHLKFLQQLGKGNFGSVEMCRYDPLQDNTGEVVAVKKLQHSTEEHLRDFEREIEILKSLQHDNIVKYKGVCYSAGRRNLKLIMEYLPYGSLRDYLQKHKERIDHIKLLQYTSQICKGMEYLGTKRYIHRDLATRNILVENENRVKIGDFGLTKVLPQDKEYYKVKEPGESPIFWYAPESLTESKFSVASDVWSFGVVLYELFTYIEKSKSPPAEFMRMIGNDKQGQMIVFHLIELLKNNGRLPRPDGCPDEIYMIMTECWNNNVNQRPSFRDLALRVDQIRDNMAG
- experiment-summary: In vitro JAK kinase assay (HTRF, phosphorylation of a biotinylated peptide), JAK2, reported as JAK2/JAK1 ratio
- Format: biochemical
- protocol-conditions: Assay Conditions 1 mM ATP
Counter-ions that a name gives are not always drawn.
readout-type: JAK2/JAK1 IC50 ratio

- N#CC[C@@H]([C@H]1CCN(c2ccnc(C#N)c2C#N)C1)n1cc(-c2ncnc3[nH]ccc23)cn1 [Example 124, trifluoroacetate]: >10.5
- N#CCC(C1CCN(c2ncc3c(c2C#N)S(=O)(=O)CC3)C1)n1cc(-c2ncnc3[nH]ccc23)cn1 (single isomer, unassigned) [Example 172]: 20.0
- N#Cc1ncsc1N1CC[C@H](C(CF)n2cc(-c3ncnc4[nH]ccc34)cn2)C1 (some centres unmarked) [Example 126, trifluoroacetate]: 5.9
- CN(C)C(=O)c1cc(N2CCC(C(CC#N)n3cc(-c4ncnc5[nH]ccc45)cn3)C2)ccn1 (single isomer, unassigned) [Example 153]: >11.1
- N#CC[C@@H]([C@H]1CCN(c2ncncc2C#N)C1)n1cc(-c2ncnc3[nH]ccc23)cn1 [Example 84, trifluoroacetate]: 11.5
- CC(O)c1cnc(N2CC[C@H]([C@H](CC#N)n3cc(-c4ncnc5[nH]ccc45)cn3)C2)c(C#N)n1 (some centres unmarked) [Example 146, trifluoroacetate]: >4.8
- N#CC[C@@H]([C@H]1CCN(c2nc(Cl)c(C#N)cc2F)C1)n1cc(-c2ncnc3[nH]ccc23)cn1 [Example 63, trifluoroacetate salt]: 7.3
- N#CC[C@@H]([C@H]1CCN(c2ncc(F)cc2C#N)C1)n1cc(-c2ncnc3[nH]ccc23)cn1 [Example 108, trifluoroacetate salt]: 5.7

* * *

- target-or-test-system: Jak2 (a.a. 828-1132) (Homo sapiens)
- Construct: Jak2 (a.a. 828-1132); His tag (N); made in house; host or cells: insect cells (baculovirus)
- experiment-summary: In vitro JAK kinase assay (HTRF, phosphorylation of a biotinylated peptide), JAK2, reported as JAK2/JAK1 ratio
- Type: biochemical
- protocol-conditions: Assay Conditions 1 mM ATP
Counter-ions that a name gives are not always drawn.
readout-type: JAK2/JAK1 IC50 ratio

- N#CCC(C1CCN(c2nccc(C#N)c2Cl)C1)n1cc(-c2ncnc3[nH]ccc23)cn1 (racemic): 3.3
- N#CC[C@@H]([C@H]1CCN(c2cccc(Br)c2C#N)C1)n1cc(-c2ncnc3[nH]ccc23)cn1 [Example 57, trifluoroacetate salt]: 37
- N#CCC(C1CCN(c2ccc3c(n2)OCC3)C1)n1cc(-c2ncnc3[nH]ccc23)cn1 (single isomer, unassigned): 5.3
- COCc1c(F)cnc(N2CC[C@H]([C@H](CC#N)n3cc(-c4ncnc5[nH]ccc45)cn3)C2)c1C#N [Example 95, bis(trifluoroacetate)]: 16.4
- CCOc1cccc2nc(N3CCC(C(CC#N)n4cc(-c5ncnc6[nH]ccc56)cn4)C3)oc12 (single isomer, unassigned): 3.3
- N#CCC(C1CCN(c2ncc3c(c2C#N)SCC3)C1)n1ccc(-c2ncnc3[nH]ccc23)c1 (single isomer, unassigned) [Example 174-2]: 11.1
- N#CC[C@@H]([C@H]1CCN(c2c(C#N)cccc2C#N)C1)n1cc(-c2ncnc3[nH]ccc23)cn1 [Example 59, trifluoroacetate salt]: 6.5
- N#CCC(C1CCN(c2ccc3c(n2)SCC3)C1)n1cc(-c2ncnc3[nH]ccc23)cn1 (single isomer, unassigned): 12
- N#Cc1ncccc1N1CC[C@H](C(CF)n2cc(-c3ncnc4[nH]ccc34)cn2)C1 (some centres unmarked) [Example 117, trifluoroacetate]: 3.7
